Test System: T1, Dimeric human ICOS (ICOS-Fc) (human, UniProt Q9Y6W8 21-140)
T1 construct: range 21-140; Fc at the C-terminus of ICOS to induce dimerization; Labeled with Alexa488 when used as probe in the flow cytometry on yeast; also called ICOS-Fc dimer protein; ICOS dimer protein; not shown: GS linker of glycine and serine; Fc region (domain) of human IgG antibody
T1 sequence (looked up): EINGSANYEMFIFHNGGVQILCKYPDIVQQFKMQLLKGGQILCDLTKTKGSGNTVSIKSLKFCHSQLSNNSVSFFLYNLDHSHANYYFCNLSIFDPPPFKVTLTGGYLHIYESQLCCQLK
Procedure Summary: bio-layer interferometry (Octet R8); fold gain of KD over wild-type ICOS-L as printed in the table
Measured Metric: INCREASED MULTIPLE
Please state the value as a number alone, without comment.

Solved entries (count: 3):
INSERT INTO measurements (binder, measured) VALUES
  ('ICOS-L variant Y8_H57N (ligand, H57 of Y8 put back to N) DTQEKEVRAMVGSDVELSCACPEGSRFDLNDVYVYWQTSESKTVVTYHIPPNSSLENVDSRYRNRALMSPAGMLRGDFSLRLFNVTPQDEQKFHCLVLSQSLGFQEVLSVEVTLHVAANFSVPVVSAPHSPSQDELTFTCTSINGYPRPNVYWINKTDNSLLDQALQNDTVFLNMRGLYDVVSVLRIARTPSVNIGCCIENVLLQQNLTVGSQTGNDIGERDKITENPVSTGEKNAAT', 23.8),
  ('A184 (ligand, Soluble form without Fc; the Fc and atezolizumab fusions are m12, m15 and m18; also called control A184) single chain: DTQEKEVRAMVGSDVELSCACPEGSRFDLNDVYVYWQTSESKTVVTYHIPQHSSLEYVDSRYRNRALMSPAGMLRGDFSLRLFNVTPQDEQKFHCLVLSPSLGFQEVLSVEVTLHVAANFSVPVVSAPHSPSQDELTFTCTSINGYPRPNVYWINKTDNSLLDQALQNDTVFLNMRGLYDVVSVLRIARTPSVNIGCCIENVLLQQNLTVGSQTGNDIGERDKITENPVSTGEKNAAT', 4.89),
  ('ICOS-L variant Y8_P51Q (ligand, P51 of Y8 put back to Q; keeps N57H only) DTQEKEVRAMVGSDVELSCACPEGSRFDLNDVYVYWQTSESKTVVTYHIPQNSSLEHVDSRYRNRALMSPAGMLRGDFSLRLFNVTPQDEQKFHCLVLSQSLGFQEVLSVEVTLHVAANFSVPVVSAPHSPSQDELTFTCTSINGYPRPNVYWINKTDNSLLDQALQNDTVFLNMRGLYDVVSVLRIARTPSVNIGCCIENVLLQQNLTVGSQTGNDIGERDKITENPVSTGEKNAAT', 4.85);

Please look at the following binder next.
The recorded INCREASED MULTIPLE for entry ICOS-L variant Y8 (ligand) DTQEKEVRAMVGSDVELSCACPEGSRFDLNDVYVYWQTSESKTVVTYHIPPNSSLEHVDSRYRNRALMSPAGMLRGDFSLRLFNVTPQDEQKFHCLVLSQSLGFQEVLSVEVTLHVAANFSVPVVSAPHSPSQDELTFTCTSINGYPRPNVYWINKTDNSLLDQALQNDTVFLNMRGLYDVVSVLRIARTPSVNIGCCIENVLLQQNLTVGSQTGNDIGERDKITENPVSTGEKNAAT equals 95

Data credit: patent US20250326816A1
